# Experimental System: IL-23 (human, p19/p40 heterodimer) (Homo sapiens, UniProt Q9NPF7;P29460 SEQ:20-189,SEQ:23-328)
# Sequence (Q9NPF7 20-189, chain 1 of 2): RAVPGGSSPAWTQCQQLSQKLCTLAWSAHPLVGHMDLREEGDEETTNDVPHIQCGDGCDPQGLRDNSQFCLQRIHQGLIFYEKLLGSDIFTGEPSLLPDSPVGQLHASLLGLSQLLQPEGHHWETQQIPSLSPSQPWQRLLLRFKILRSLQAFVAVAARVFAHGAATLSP
# Sequence (P29460 23-328, chain 2 of 2): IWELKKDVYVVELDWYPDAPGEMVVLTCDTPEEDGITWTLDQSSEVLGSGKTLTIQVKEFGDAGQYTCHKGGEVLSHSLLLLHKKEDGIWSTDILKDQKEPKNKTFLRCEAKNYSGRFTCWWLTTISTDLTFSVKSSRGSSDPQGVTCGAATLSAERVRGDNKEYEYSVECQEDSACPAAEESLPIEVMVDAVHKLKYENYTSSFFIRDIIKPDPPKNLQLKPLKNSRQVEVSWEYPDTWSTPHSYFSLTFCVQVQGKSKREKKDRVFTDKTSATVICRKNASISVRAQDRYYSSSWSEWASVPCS
# Run Description: filter; SHMCK, tRNA
# Setup Conditions: tags: R&D Systems, carrier free
Measured Property: Kd

Binder	Measured
AMX86-C5 (ssRNA, 2'-F C,U) RNA: GGGAAAAGCGAAUCAUACACAAGAGUUUUAUGUGGGUCCCGAUGAUUAACUUUAUUGGCGCAUUGCUCCGCCAGAGACCAACCGAGAA	80.3 nM
AMX86-E6 (ssRNA, 2'-F C,U) RNA: GGGAAAAGCGAAUCAUACACAAGAUCGCAAAAGGAGUUUGUCUCUGCUCUCGGAGUGUGUCAGUGCUCCGCCAGAGACCAACCGAGAA	51.3 nM
AMX86-F12 (ssRNA, 2'-F C,U) RNA: GGGAAAAGCGAAUCAUACACAAGAGUGUUGAAUGAGCGCUGGUGGACAGAUCUUUGGUUACAGAGCUCCGCCAGAGACCAACCGAGAA	424 nM
AMX91-F11 (ssRNA, 2'-F C,U) RNA: GGGAAAAGCGAAUCAUACACAAGACGCGUCAGGUCCACGCUGAAAUUUAUUUUCGGCAGUGUAAGCUCCGCCAGAGACCAACCGAGAA	202 nM
AMX86-C7 (ssRNA, 2'-F C,U) RNA: GGGAAAAGCGAAUCAUACACAAGAUGCGCUAUGUUUGGCUGGGAAUUGUAGCAUUGCUCAAGUGGCUCCGCCAGAGACCAACCGAGAA	140 nM
AMX91-H12 (ssRNA, 2'-F C,U) RNA: GGGAAAAGCGAAUCAUACACAAGACGUGUGCUUUAUGUAAACCAUAACGUUCCAUAAGGAAUAUGCUCCGCCAGAGACCAACCGAGAA	60.8 nM
AMX91-E3 (ssRNA, 2'-F C,U) RNA: GGGAAAAGCGAAUCAUACACAAGAUUACUCCGUUAGUGUCAGUUGACGGAGGGAGCGUACUAUUGCUCCGCCAGAGACCAACCGAGAA	205 nM
AMX86-D8 (ssRNA, 2'-F C,U) RNA: GGGAAAAGCGAAUCAUACACAAGACAGAGGCAAUGAGAGCCUGGCGAUGUCAGUCGCAUCUUGCUGCUCCGCCAGAGACCAACCGAGAA	294 nM
AMX86-C9 (ssRNA, 2'-F C,U) RNA: GGGAAAAGCGAAUCAUACACAAGACUCAUGGAUAUGGCCUAGCAGCCGUGGAAGCGGUCAUUCUGCUCCGCCAGAGACCAACCGAGAA	97.9 nM
AMX84-C10 (ssRNA, 2'-F C,U) RNA: GGGAAAAGCGAAUCAUACACAAGAGAUGUAUUCAGGCGGUCCGCAUUGAUGUCAGUUAUGCGUAGCUCCGCCAGAGACCAACCGAGAA	94.3 nM
AMX91-H7 (ssRNA, 2'-F C,U) RNA: GGGAAAAGCGAAUCAUACACAAGACUUAUCGCCUCAAGGGGGGUAAUAAACCCAGCGUGUGCAUGCUCCGCCAGAGACCAACCGAGAA	71 nM
AMX86-A9 (ssRNA, 2'-F C,U) RNA: GGGAAAAGCGAAUCAUACACAAGAUCUACGAUUGUUCAGGUUUUUUGUACUCAACUAAAGGCGAGCUCCGCCAGAGACCAACCGAGAA	190 nM
AMX91-D9 (ssRNA, 2'-F C,U) RNA: GGGAAAAGCGAAUCAUACACAAGAGUGUAUUACCCCCAACCCAGGGGGACCAUUCGCGUAACAAGCUCCGCCAGAGACCAACCGAGAA	44.6 nM
AMX86-H9 (ssRNA, 2'-F C,U) RNA: GGGAAAAGCGAAUCAUACACAAGAUGGUUCCCACGUGAAAGUGGCUAGCGAGUACCCCACUUAUGCUCCGCCAGAGACCAACCAAGGG	105 nM
AMX84-A11 (ssRNA, 2'-F C,U) RNA: GGGAAAAGCGAAUCAUACACAAGAGAGGUAUGUGGUUUUGCGGAGCAACUCGUGUCAGCGGUCAGCUCCGCCAGAGACCAACCGAGAA	17.8 nM
AMX86-F6 (ssRNA, 2'-F C,U) RNA: GGGAAAAGCGAAUCAUACACAAGAAUGUAUACAAUGCCCUAUCGUCAGUUAGGCAUGUGUGGAUGCUCCGCCAGAGACCAACCGAGAA	69.1 nM

Reference for the values: patent US20060193821
